Please go through the items and note down their melting point.

Examples with answers:
[[record]]
molecule = "O=C(CC(c1ccc(OC(F)F)c(OCC2CC2)c1)N1C(=O)c2ccccc2C1=O)NO (stereo not drawn)"
measurement_kind = "melting point"
measured = "129 to 131 °C"

[[record]]
molecule = "CCOc1cc(C(CC(=O)N(C)C)N2C(=O)c3cccc(NC(C)=O)c3C2=O)ccc1OC(F)F (stereo not drawn)"
measurement_kind = "melting point"
measured = "163 to 165 °C"

[[record]]
molecule = "CCOc1cc(C(CC(N)=O)N2C(=O)c3cccc(NC(C)=O)c3C2=O)ccc1OC(F)F (stereo not drawn)"
measurement_kind = "melting point"
measured = "178 to 180 °C"

[[record]]
molecule = "NC(=O)CC(c1ccc(OC(F)F)c(OC(F)F)c1)N1Cc2cccc(NC(=O)C3CC3)c2C1=O (stereo not drawn)"
measurement_kind = "melting point"
measured = "198 to 200 °C"

[[record]]
molecule = "CCOc1cc(C(CC(N)=O)N2Cc3cccc(NC(=O)C4CC4)c3C2=O)ccc1OC(F)F (stereo not drawn)"
measurement_kind = "melting point"
measured = "179 to 181 °C"


melting point in this record for CCOc1cc(C(CC(=O)N(C)C)N2Cc3cccc(NC(C)=O)c3C2=O)ccc1OC(F)F (stereo not drawn) : 141 to 143 °C

###

For each entry below, report its melting point value.

Here's what some known entries look like.
[[record]]
molecule = "CCOc1cc(C(CC(=O)N(C)C)N2Cc3cccc(NC(=O)C4CC4)c3C2=O)ccc1OC(F)F (stereo not shown)"
measurement_kind = "melting point"
measured = "135 to 137 °C"

[[record]]
molecule = "CCOc1cc(C(CC(=O)NO)N2Cc3cccc(NC(C)=O)c3C2=O)ccc1OC(F)F (stereo not shown)"
measurement_kind = "melting point"
measured = "121 to 123 °C"

[[record]]
molecule = "CCOc1cc(C(CS(C)(=O)=O)N2Cc3cccc(NC(=O)C4CC4)c3C2=O)ccc1OC(F)F (stereo not shown)"
measurement_kind = "melting point"
measured = "115 to 117 °C"


The value of melting point measured for the molecule CCOc1cc(C(CC(=O)NO)N2Cc3cccc(NC(=O)C4CC4)c3C2=O)ccc1OC(F)F (stereo not shown) turned out to be 116 to 118 °C

###

Task for the reader: assign each of the following compounds its reported melting point.

// solved cases for melting point follow
[[record]]
compound = "CCOc1cc(C(CS(C)(=O)=O)N2C(=O)c3cccc(NC(C)=O)c3C2=O)ccc1OC(F)F (stereo not shown)"
measurement_kind = "melting point"
measured = "118 to 120 °C"

[[record]]
compound = "CCOc1cc(C(CC(=O)O)N2C(=O)c3cccc(NC(C)=O)c3C2=O)ccc1OC(F)F (stereo not shown)"
measurement_kind = "melting point"
measured = "89 to 91 °C"

[[record]]
compound = "CCOc1cc(C(CC(N)=O)N2Cc3cccc(NC(C)=O)c3C2=O)ccc1OC(F)F (stereo not shown)"
measurement_kind = "melting point"
measured = "129 to 131 °C"

[[record]]
compound = "CC(=O)Nc1cccc2c1C(=O)N(C(CC(N)=O)c1ccc(OC(F)F)c(OCC3CC3)c1)C2=O (stereo not shown)"
measurement_kind = "melting point"
measured = "77 to 79 °C"

[[record]]
compound = "CN(C)C(=O)CC(c1ccc(OC(F)F)c(OCC2CC2)c1)N1Cc2cccc(N)c2C1=O (stereo not shown)"
measurement_kind = "melting point"
measured = "70 to 72 °C"

[[record]]
compound = "COC(=O)CC(c1ccc(OC(F)F)c(OC(F)F)c1)N1Cc2c(Cl)ccc(NC(=O)C3CC3)c2C1=O (stereo not shown)"
measurement_kind = "melting point"
measured = "175 to 177 °C"


Parameters: items (list). Returns: melting point for each item.
1. CC(=O)Nc1cccc2c1C(=O)N(C(CC(=O)N(C)C)c1ccc(OC(F)F)c(OC(F)F)c1)C2=O (stereo not shown)
2. CCOc1cc(C(CC(=O)N2CCOCC2)N2Cc3cccc(NC(C)=O)c3C2=O)ccc1OC(F)F (stereo not shown)
3. CN(C)C(=O)CC(c1ccc(OC(F)F)c(OC(F)F)c1)N1Cc2cccc(NC(=O)C3CC3)c2C1=O (stereo not shown)
4. CCOc1cc(C(CC(N)=O)N2Cc3c(Cl)ccc(NC(=O)C4CC4)c3C2=O)ccc1OC(F)F (stereo not shown)
5. CC(=O)Nc1cccc2c1C(=O)N(C(CC(=O)N(C)C)c1ccc(OC(F)F)c(OCC3CC3)c1)C2=O (stereo not shown)
6. CCOc1cc(C(CC(=O)NO)N2C(=O)c3cccc(NC(C)=O)c3C2=O)ccc1OC(F)F (stereo not shown)
7. O=C(CC(c1ccc(OC(F)F)c(OC(F)F)c1)N1Cc2cccc(NC(=O)C3CC3)c2C1=O)NO (stereo not shown)

**Result**
["83 to 85 °C", "164 to 166 °C", "158 to 160 °C", "198 to 200 °C", "80 to 82 °C", "148 to 150 °C", "191 to 193 °C"]
